Listed compounds paired with reported remaining activity at 100 µM
Experimental Target: MurA enzyme from E. coli (Escherichia coli)
Assay Name: MurA inhibition assay (malachite green, orthophosphate release)
Format: biochemical
Conditions Used: 100 μM, 30 min preincubation with addition of DTT (0.1 mM); read-out: RA% (residual activity), 30 min + DTT
# value in %; strip the unit string

Below are worked cases with known answers.
get_value(item= `C[C@@H]1O[C@@H](Oc2c(-c3ccc(O)c(O)c3)oc3cc(O)cc(O)c3c2=O)[C@H](O)[C@H](O)[C@H]1O` , readout=remaining activity at 100 µM) returns 103

Lab note: `Oc1cc(O)c2c(c1)O[C@H](c1ccc(O)c(O)c1)[C@@H](O)[C@H]2O` gave remaining activity at 100 µM of 13

compound `COc1cc(O)c2c(=O)c(O)c(-c3ccc(O)c(O)c3)oc2c1` , remaining activity at 100 µM observed: 58

Kindly note the recorded remaining activity at 100 µM for `O=c1cc(-c2ccc(O)c(O)c2)oc2cc(O)cc(O)c12` , which is 96

// `O=C1c2c(O)cc(O)cc2O[C@H](c2cc(O)c(O)c(O)c2)[C@H]1O` : remaining activity at 100 µM value = 101

`O=c1c(O)c(-c2cc(O)c(O)c(O)c2)oc2cc(O)cc(O)c12` has a reported remaining activity at 100 µM of 34

New cases:
# remaining activity at 100 µM (compound: `O=c1c(O)c(-c2ccc(O)c(O)c2)oc2cc(O)cc(O)c12` ) is 46

Reported remaining activity at 100 µM ( O=C1c2c(O)cc(O)cc2OC(c2ccc(O)c(O)c2)C1O (centres unmarked) ) = 105

----------
// pIC50 lookup, one value per entry
Experimental Target: MurA enzyme from E. coli (Escherichia coli, UniProt P0A749)
Sequence (P0A749 whole entry): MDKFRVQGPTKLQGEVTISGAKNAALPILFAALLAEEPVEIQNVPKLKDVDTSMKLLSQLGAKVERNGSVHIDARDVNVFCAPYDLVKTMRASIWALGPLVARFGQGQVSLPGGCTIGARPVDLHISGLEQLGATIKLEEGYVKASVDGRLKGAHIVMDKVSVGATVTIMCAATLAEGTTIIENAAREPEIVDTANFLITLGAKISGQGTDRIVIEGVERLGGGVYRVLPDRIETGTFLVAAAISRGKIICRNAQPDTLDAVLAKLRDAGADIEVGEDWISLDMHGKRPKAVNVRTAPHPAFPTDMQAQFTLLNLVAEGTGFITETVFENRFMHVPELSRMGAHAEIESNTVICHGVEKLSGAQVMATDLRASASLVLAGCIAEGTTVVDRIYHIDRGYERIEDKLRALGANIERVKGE
Assay Name: MurA inhibition assay (malachite green, orthophosphate release)
Format: biochemical
Conditions Used: without preincubation; read-out: IC50, 0 min
Units for pIC50: none; it is -log10 of a concentration expressed in mol/L.

Would you please look over these solved cases?
Form: item `O=c1c(O)c(-c2ccc(O)c(O)c2)oc2cc(O)ccc12` ; test system MurA enzyme from E. coli (Escherichia coli, UniProt P0A749); pIC50: 4.04

Measured on MurA enzyme from E. coli (Escherichia coli, UniProt P0A749), `O=C1c2c(O)cc(O)cc2O[C@H](c2cc(O)c(O)c(O)c2)[C@H]1O` has a documented pIC50 of 4.44

Item `Oc1cc(O)c2c(c1)O[C@H](c1ccc(O)c(O)c1)[C@@H](O)[C@H]2O` ; assay system MurA enzyme from E. coli (Escherichia coli, UniProt P0A749); pIC50 reported as 4.16

Form: item O=c1cc(-c2ccccc2)oc2c(O)c(O)ccc12 [Compound 25, 7,8-dihydroxyflavone] ; test system MurA enzyme from E. coli (Escherichia coli, UniProt P0A749); pIC50: 4.06

Case `COc1cc(O)c2c(=O)c(O)c(-c3ccc(O)c(O)c3)oc2c1` , MurA enzyme from E. coli (Escherichia coli, UniProt P0A749), pIC50 recorded as 4.02

---
# lookup: `O=c1c(O)c(-c2ccc(O)c(O)c2)oc2cc(O)cc(O)c12` on MurA enzyme from E. coli (Escherichia coli, UniProt P0A749), pIC50 = 4.85

----------
Experimental Target: MurA enzyme from E. coli (Escherichia coli)
Assay Name: MurA inhibition assay (malachite green, orthophosphate release)
Format: biochemical
Conditions Used: 100 μM, 30 min preincubation with addition of DTT (0.1 mM); read-out: RA% (residual activity), 30 min + DTT
Below is a list of entries, each paired with its recorded remaining activity at 100 µM value.
All answers are understood in %, so give the number only.

Just so you know, measured remaining activity at 100 µM for O=c1c(O)c(-c2ccc(O)c(O)c2)oc2cc(O)ccc12 [Compound 2, fisetin] came out at 60

The molecule identified as O=c1cc(-c2ccccc2)oc2cc(O)c(O)c(O)c12 [Compound 26, baicalein] registered its remaining activity at 100 µM at 86

Summary for this molecule, O=c1cc(-c2ccccc2)oc2c(O)c(O)ccc12 [Compound 25, 7,8-dihydroxyflavone] : remaining activity at 100 µM is 89

Switching to the query record.
Reported remaining activity at 100 µM ( COc1cc(O)cc2c1C(=O)C[C@@H](c1ccccc1)O2 [Compound 48, (−)-alpinetin] ) = 102

----------
Hill coefficient, 30 min reference
Experimental Target: MurA enzyme from E. coli (Escherichia coli, UniProt P0A749)
Assay Name: MurA inhibition assay (malachite green, orthophosphate release)
Assay type: biochemical
Conditions Used: 30 min preincubation
Please state the value as a number alone, without comment.

O=c1cc(-c2ccccc2)oc2c(O)c(O)ccc12 [Compound 25, 7,8-dihydroxyflavone] yielded Hill coefficient, 30 min of 1.4

According to the records, this compound `COc1cc(O)c2c(=O)c(O)c(-c3ccc(O)c(O)c3)oc2c1` displays Hill coefficient, 30 min of 1.1

// sample COc1cc(O)cc2c1C(=O)C[C@@H](c1ccccc1)O2 [Compound 48, (−)-alpinetin] , its Hill coefficient, 30 min was 1.6

Consider the additional compound presented here.
// field: Hill coefficient, 30 min; key: `O=c1c(O)c(-c2ccc(O)c(O)c2)oc2cc(O)ccc12` ; value = 1.0

----------
Experimental Target: MurA enzyme from E. coli (Escherichia coli, UniProt P0A749)
Assay Name: MurA inhibition assay (malachite green, orthophosphate release)
Assay type: biochemical
Conditions Used: 30 min preincubation; read-out: IC50, 30 min
Measurement Kind: IC50
Provide the measurement as a number trailed by its unit.

Readout IC50 for `O=c1c(O)c(-c2ccc(O)c(O)c2)oc2cc(O)cc(O)c12` , test system MurA enzyme from E. coli (Escherichia coli, UniProt P0A749), was 9.3 µM

Value sought: IC50, system MurA enzyme from E. coli (Escherichia coli, UniProt P0A749), item O=c1cc(-c2ccccc2)oc2c(O)c(O)ccc12 [Compound 25, 7,8-dihydroxyflavone] . Result: 12.9 µM

Measured IC50 (MurA enzyme from E. coli (Escherichia coli, UniProt P0A749)), entry COc1cc(O)cc2c1C(=O)C[C@@H](c1ccccc1)O2 [Compound 48, (−)-alpinetin] : 57 µM

Tested system MurA enzyme from E. coli (Escherichia coli, UniProt P0A749); IC50 recorded for `O=c1c(O)c(-c2ccc(O)c(O)c2)oc2cc(O)ccc12` was 8.8 µM

Field IC50 (system: MurA enzyme from E. coli (Escherichia coli, UniProt P0A749)) for entry `Oc1cc(O)c2c(c1)O[C@H](c1ccc(O)c(O)c1)[C@@H](O)[C@H]2O` = 28.6 µM
